test: Apparent permeability of the compound by PAMPA assay; assay type: ADME
measuredProperty: Papp (×10⁻⁶ cm/s)

>>> df
                           smilesnotation  quantitativeresult
0         c1ccc(Nc2nc(-c3cn[nH]c3)cs2)nc1                32.9
1  c1cc(Nc2nc3c(s2)CCCc2[nH]ncc2-3)[nH]n1                  25

(A) c1cc(Nc2nc3c(s2)CCCc2n[nH]cc2-3)ncn1
(B) Cc1ccnc(Nc2nc3c(s2)CCCc2[nH]ncc2-3)n1
(C) Cc1cc(C)nc(Nc2nc3c(s2)CCc2[nH]ncc2-3)c1
(D) Cn1ccc(Nc2nc3c(s2)CCCc2[nH]ncc2-3)n1
rank_up(items): orders items by reported Papp in ascending numerical order. Response format: the labels, sorted as the prompt asks. B, C, D, A
(B: 0.5 ×10⁻⁶ cm/s, C: 1 ×10⁻⁶ cm/s, D: 19 ×10⁻⁶ cm/s, A: 41 ×10⁻⁶ cm/s)
